Entries and their measured SPOT peptide array binding signal intensity follow.
target: SpBzz1-D1; assay: SPOT peptide array binding signal intensity (averaged, normalized) (arbitrary units (background-subtracted, floor 0; scale differs between SH3 domains)); higher = stronger binding of the SH3 domain to the peptide

# annotated cases, reported SPOT peptide array binding signal intensity shown
GERSRPLVISILSSA; 314
APKHAPPPVPNETDN; ≤ 0
DTFLPPPPPPPSNFE; 1360
MTKTPETSPPKRPMG; 30.5
YSRKKLPVVLSKMTL; 137

Tell me the measured SPOT peptide array binding signal intensity of PAPPPPPRASRPTPN , please.
208

Tell me the measured SPOT peptide array binding signal intensity of RRRIAYPFYPFKKLG , please.
37

Tell me the measured SPOT peptide array binding signal intensity of RLPAPPPPPRRGPAP , please.
4030
